system.tested: JAK3 (catalytic domain, His-tag) (Homo sapiens, UniProt P52333)
Construct: All four purified enzymes contain only the catalytic domain; His (N); purchased Carna Biosciences, Inc; host or cells: baculovirus expression system
Sequence (P52333 822-1111 limits assumed): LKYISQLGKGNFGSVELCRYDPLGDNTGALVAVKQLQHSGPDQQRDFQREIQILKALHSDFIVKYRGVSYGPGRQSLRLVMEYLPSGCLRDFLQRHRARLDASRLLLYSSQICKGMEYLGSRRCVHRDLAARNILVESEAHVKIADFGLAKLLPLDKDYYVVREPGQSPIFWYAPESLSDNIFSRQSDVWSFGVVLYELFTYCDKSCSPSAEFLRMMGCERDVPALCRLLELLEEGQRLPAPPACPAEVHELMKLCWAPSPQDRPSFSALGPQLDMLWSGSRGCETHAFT
method: JAK kinase assay (HTRF, phosphorylation of TK substrate-biotin), JAK3
Format: biochemical
condition.notes: HTRF assay, ATP at Km (2 μM); read-out: JAK3 kinase inhibitory activity (EC50)
pEC50: −log10 of the molar value.
# pEC50 values compiled below

compound: O=C(CNc1ccccc1)N1CCN(c2ncnc3[nH]ccc23)CC12CC2 [Example 451]
pEC50: 6.30 to 7.00

compound: S=C(NC1CCCCC1)N1CCN(c2ncnc3[nH]ccc23)CC12CC2 [Example 437]
pEC50: < 6.30

compound: NS(=O)(=O)c1ccc(OCC(=O)N2CCN(c3ncnc4[nH]ccc34)CC23CC3)c(F)c1 [Example 434]
pEC50: > 7.00

compound: S=C(COc1ccccc1)N1CCN(c2ncnc3[nH]ccc23)CC12CC2 [Example 448]
pEC50: > 7.00

compound: COCC(=O)N1CCN(c2ncnc3[nH]ccc23)CC12CC2 [Example 443]
pEC50: < 6.30

compound: N#Cc1ccc(CC(=S)N2CCN(c3ncnc4[nH]ccc34)CC23CC3)cc1 [Example 441]
pEC50: > 7.00

compound: O=C(Oc1ccc(Cl)cc1)N1CCN(c2ncnc3[nH]ccc23)CC12CC2 [Example 446]
pEC50: 6.30 to 7.00

compound: CC(C)(C)[S+]([O-])N1CCN(c2ncnc3[nH]ccc23)CC12CC2 (stereo not drawn) [Example 449]
pEC50: < 6.30

compound: NS(=O)(=O)c1cnn(CCC(=O)N2CCN(c3ncnc4[nH]ccc34)CC23CC3)c1 [Example 435]
pEC50: > 7.00
